These measurements were taken from patent US11964980B2.

- Reported Conditions: pH 6.57
Measured Solubility, FaSSIF values are reported for all entries that follow.
Provide the reading as a plain figure in µg/mL.

[
  {
    "Molecule": "Cn1cc(-c2cc3c(N4CCN(c5ncc([C@@](C)(N)c6ccc(F)cc6)cn5)CC4)ncnn3c2)cn1 [crystalline Form Tr]",
    "Uom": "µg/mL",
    "Solubility, FaSSIF": 270
  },
  {
    "Molecule": "Cn1cc(-c2cc3c(N4CCN(c5ncc([C@@](C)(N)c6ccc(F)cc6)cn5)CC4)ncnn3c2)cn1 [crystalline Form C]",
    "Uom": "µg/mL",
    "Solubility, FaSSIF": 30
  },
  {
    "Molecule": "Cn1cc(-c2cc3c(N4CCN(c5ncc([C@@](C)(N)c6ccc(F)cc6)cn5)CC4)ncnn3c2)cn1 [crystalline Form T]",
    "Uom": "µg/mL",
    "Solubility, FaSSIF": 80
  }
]

In the following, a different molecule is considered.
// field: Solubility, FaSSIF; key: Cn1cc(-c2cc3c(N4CCN(c5ncc([C@@](C)(N)c6ccc(F)cc6)cn5)CC4)ncnn3c2)cn1 [crystalline Form H] ; value = 100

* * *

- Reported Conditions: pH 1.67
Readout Label: Solubility, FaSSGF

These recorded examples may help you get a feel for the data.
[
  {
    "Compound": "Cn1cc(-c2cc3c(N4CCN(c5ncc([C@@](C)(N)c6ccc(F)cc6)cn5)CC4)ncnn3c2)cn1 [crystalline Form T]",
    "Solubility, FaSSGF": "1880 µg/mL"
  },
  {
    "Compound": "Cn1cc(-c2cc3c(N4CCN(c5ncc([C@@](C)(N)c6ccc(F)cc6)cn5)CC4)ncnn3c2)cn1 [crystalline Form Tr]",
    "Solubility, FaSSGF": "4790 µg/mL"
  },
  {
    "Compound": "Cn1cc(-c2cc3c(N4CCN(c5ncc([C@@](C)(N)c6ccc(F)cc6)cn5)CC4)ncnn3c2)cn1 [crystalline Form C]",
    "Solubility, FaSSGF": "2720 µg/mL"
  },
  {
    "Compound": "Cn1cc(-c2cc3c(N4CCN(c5ncc([C@@](C)(N)c6ccc(F)cc6)cn5)CC4)ncnn3c2)cn1 [crystalline Form H]",
    "Solubility, FaSSGF": "4180 µg/mL"
  }
]

In the following, a different compound is considered.
// field: Solubility, FaSSGF; key: Cn1cc(-c2cc3c(N4CCN(c5ncc([C@@](C)(N)c6ccc(F)cc6)cn5)CC4)ncnn3c2)cn1 [crystalline Form A] ; value = 2110 µg/mL
